# subject-of-test: HCV E1E2 antigen, isolate UKN1B12.16 (hepatitis C virus, isolate UKN1B12.16)
# assay-procedure: ELISA, Fab on E1E2 antigen
metric: OD 450 nm (OD 450 nm)
Give bare numbers, in OD 450 nm.

For the 2 binders below, give their OD 450 nm values.
1. Fab P1a (Fab, V domains shown) VH: EVQLLESGGGVVQPGGSLRLSCAASGFTFTSFTMHWVRQAPGKGLEWVALISHDGSNKDYADSVRGRFTVSRDNSKKMVYLQMSSLRPDDAAVYYCARGGPAYYTYSDTLTGYHNVVGDYWGQGTLVTVSS VL: ELTQSPGTLSLSPGERATLSCRTSQSVSSTYLAWYQQKPGQPPRLLIYGASNRAPGIPDRFSGSGSGTDFTLTISRLEPEDFAVYYCQQYGDSPPITFGQGTRLDIKR
2. Fab N2 (Fab, V domains shown) VH: VQLLEQSGPEVKKPGDSLRISCKMSGDSLVTTWIGWVRQKPGQGLEWMGIINPGDSSTNIYPGDSATRYGPSFQGQVTISIDKSTSTAYLQWNTVKPSDTGIYYCARHVPVPISGTFLWREREMHDFGYFDDWGQGTLVIVSS VL: ELTQSPGTLSLFPGERATLSCRASQSILGRYLAWYQQKGGRAPRLLIFGASKRATGIPDRFSGSGSGTDFTLTIGRLEPEDFAVYYCQHYGSSITFGQGTRLDIKR

Marked response:
0.15
0.81
